Tested on: DU-145 prostate
Experiment: NCI-60 one-dose screen, 48 h (100 = growth as untreated, 0 = no growth, -100 = all killed)
Conditions: 10 µM unless noted
Compounds without any hit were thinned out: in the full panel of roughly 83,000, 20% have a hit.

[
  {
    "MOLECULE": "COc1cccc(-c2nc3cc(NC(=O)c4ccc(Cl)c(C#N)c4)ccc3o2)c1",
    "growth [%]": 8.18
  },
  {
    "MOLECULE": "Nc1ncnc2c1CN(Cc1ccccc1)CC2",
    "growth [%]": 132
  },
  {
    "MOLECULE": "CCSc1nc(-c2ccco2)n2nc(-c3ccco3)cc2n1",
    "growth [%]": 118
  },
  {
    "MOLECULE": "C/C(=C\\CCc1ccsc1)CC/C=C(\\C)CCCN1CCSCC1",
    "growth [%]": 96.6
  },
  {
    "MOLECULE": "O=c1c2ccccc2c2nccn2c2cc(Cl)ccc12",
    "growth [%]": 98.1
  },
  {
    "MOLECULE": "CN(C)c1ncnc2c1ncn2C1CCCCO1 (stereo unspecified)",
    "growth [%]": 115
  }
]

The reported numbers originate from PubChem BioAssay (NCI).
